Value source: PubChem BioAssay (NCATS)

Test: qHTS for compounds that reverse cellular toxicity of Amyloid beta (A-beta) peptide in yeast: LOPAC Validation Assay (AID 720559);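 further: plate controls were DMSO for no effect and equimolar ferric chloride plus clioquinol rescue for full effect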
Conditions: yeast expressing A-beta; series mostly up to 46.1 µM
Source text: The A-beta peptide is produced by the processing of the amyloid precursor protein (APP) by two proteases, beta and gamma secretases. […] To understand further this biology and its potential therapeutic implications for human neurodegenerative disease, a quantitative high-throughput screen for compounds that reverse the cellular toxicity of the A-beta peptide was developed. […]
Calls of active or inactive are those of the source. The call rests on the fitted dose curve; in most records, active means well fitted curve in the direction sought with a large enough effect; inconclusive means small, poorly fitted or top-dose-only effect, or another doubt; inactive means no such curve, though single readings can be large or run the other way.
observation.type: outcome

COCCOC(=O)C1=C(C)NC(C)=C(C(=O)OC/C=C/c2ccccc2)C1c1cccc([N+](=O)[O-])c1 (stereo not drawn); inactive
NC(N)=NCCC[C@H](N)C(=O)O; inactive
C#CCN(C)Cc1ccccc1; inactive

====

Test system: HaCat
Experiment: Cytotoxic Profiling of Annotated Libraries Using Quantitative High-Throughput Screening (AID 1296008); further: nearly all actives have a fitted effect of over 60% in size
Conditions: Five cell lines viability, CellTiter-Glo ATP luminescence, 48-72 h
Results filed as inconclusive are left out. Active and inactive are the calls of the source. The call rests on the fitted dose curve; in most records, active means well fitted inhibition curve with a large enough effect; inconclusive means small, poorly fitted or top-dose-only effect; inactive means flat fitted curve, though single readings scatter.
Select the correct class. Options are 1 for active, -1 for inactive and nothing else.

CC(O)COc1ccccc1 (configuration not stated); -1
O=C1N=C(O)CN1/N=C/c1ccc(-c2ccc([N+](=O)[O-])cc2)o1; -1
CSc1ccc2c(c1)C(N1CCN(C)CC1)Cc1ccccc1S2 (configuration not stated); -1
CC(C)(C)C(=O)C(Oc1ccc(Cl)cc1)n1ccnc1 (configuration not stated); -1
CC(=O)NC(Cc1ccccc1)C(=O)O (configuration not stated); -1
O=C1O[C@H]([C@@H](O)CO)C(O)=C1O; -1

Given `Nc1cc(=O)[nH]c(N)n1` , state the outcome it received in this test. -1

Given `C[C@]12CC[C@@H]3c4ccc(O)cc4CC[C@H]3[C@@H]1CC[C@@H]2OC(=O)CCC1CCCC1` , state the outcome it received in this test. -1

Given `CCN(CC)CCNC(=O)c1cc(Cl)c(N)cc1OC` , state the outcome it received in this test. -1

Given `N[C@@H](CSSC[C@H](N)C(=O)O)C(=O)O` , state the outcome it received in this test. -1

Given CCOC(CN1CCN(CC(C)C(=O)c2ccccc2)CC1)c1ccccc1 (configuration not stated) , state the outcome it received in this test. -1

Given `C[C@H]1O[C@@H](n2cc(F)c(=O)[nH]c2=O)[C@H](O)[C@@H]1O` , state the outcome it received in this test. 1

====

System: PC26
Test: qHTS profiling for inhibitors of Plasmodium falciparum proliferation (AID 504749);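 further: 0% = DMSO vehicle and full inhibition = artemisinin control; nearly all actives have a fitted effect of over 60% in size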
Details: P. falciparum in erythrocytes, SYBR Green DNA, 72 h; series mostly up to 28.7 µM
Results filed as inconclusive are left out. The source made the active and inactive calls. The call rests on the fitted dose curve; in most records, active means well fitted inhibition curve with a large enough effect; inconclusive means small, poorly fitted or top-dose-only effect; inactive means flat fitted curve, though single readings scatter.
observation.type: outcome

O=S(=O)(O)NC1CCCCC1; inactive
O=C1OC(OC(=O)c2cccnc2Nc2cccc(C(F)(F)F)c2)c2ccccc21 (stereo not drawn); inactive
COc1cc(C)c(Cc2cnc(N)nc2N)cc1OC; inactive

====

Provide the recorded activity, negative = cell killing for the entries that follow.
Assay: Drug repurposing screens with cells derived from glioblastoma tumor samples (AID 1345199); further: on the % scale 0 is the no-effect control and ±100 the full control effect; nearly all actives have a fitted effect of over 40% in size
Conditions: GBM patient neurospheres viability, ATP luminescence, 48 h; at 21.2 µM (top of the series); tumour line B
Results filed as inconclusive are left out.
Give bare numbers, in %.

Study these solved cases before continuing.
CC1CC(OC(=O)C(O)c2ccccc2)CC(C)(C)N1C (stereo not given); 1.64
C#CCN(C)Cc1ccccc1; -12.4
COc1cc2[nH]c(=O)[nH]c(=O)c2cc1OC; -9.77
C[C@@H]1C[C@H]2[C@@H]3C[C@H](F)C4=CC(=O)C=C[C@]4(C)[C@@]3(F)[C@@H](O)C[C@]2(C)[C@@]1(O)C(=O)CO; -15.7
COc1ccc2c(c1)C(=O)N(CCc1ccc(S(=O)(=O)NC(=O)NC3CCCCC3)cc1)C(=O)C2(C)C; -10.5
C[C@H](N)[C@H](O)c1cccc(O)c1; -13

For every item in the list below, what is its measured activity, negative = cell killing?
1. CCCCN(CCCC)CCCOC(=O)c1ccc(N)cc1
2. CS(=O)(=O)c1ccc([C@@H](O)[C@@H](CF)NC(=O)C(Cl)Cl)cc1
3. C/C(=C(\CCOP(=O)(O)O)SC(=O)c1ccccc1)N(C=O)Cc1cnc(C)nc1N
4. NS(=O)(=O)c1cc2c(cc1Cl)NC(CSCc1ccccc1)=NS2(=O)=O

1: 6.6; 2: -19.6; 3: 1.9; 4: -6.25

====

Experiment: Cell Viability - SH-SY5Y (AID 544);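 further: cells exposed to compound for 40 hours; nearly all actives have a fitted effect of over 55% in size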
Settings: SH-SY5Y neuroblastoma cell viability; series mostly up to 92.2 µM
Records with an inconclusive call do not appear. Active and inactive are the calls of the source. Calls follow the shape of the dose curve; as a rule, active = well fitted cell-killing curve with a large enough effect; inconclusive = small, poorly fitted or top-dose-only effect; inactive = flat fitted curve, though single readings scatter.
Select the correct class. Options are active, inactive and nothing else.

Given `Cc1cc2nc3c(=O)[nH]c(=O)nc-3n(C[C@H](O)[C@H](O)[C@H](O)CO)c2cc1C` , state the outcome it received in this test. inactive

Given `NC(=O)N/N=C/c1ccc([N+](=O)[O-])o1` , state the outcome it received in this test. inactive

Given `Cc1c(O)cccc1C(=O)N[C@@H](CSc1ccccc1)[C@H](O)CN1C[C@H]2CCCC[C@H]2C[C@H]1C(=O)NC(C)(C)C` , state the outcome it received in this test. active

Given `Cc1cc(CC(=O)O)n(C)c1C(=O)c1ccc(Cl)cc1` , state the outcome it received in this test. inactive

Given `NCCNCCNCCN` , state the outcome it received in this test. inactive

Given `O=C1c2c(O)cccc2Cc2cccc(O)c21` , state the outcome it received in this test. inactive

Given `CCCCCCCCCCCCOS(=O)(=O)O` , state the outcome it received in this test. inactive

====

Test system: CP247
Assay: qHTS profiling for inhibitors of Plasmodium falciparum proliferation (AID 504749);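 further: 0% = DMSO vehicle and full inhibition = artemisinin control; nearly all actives have a fitted effect of over 60% in size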
Details: P. falciparum in erythrocytes, SYBR Green DNA, 72 h; series mostly up to 28.7 µM
Results filed as inconclusive are left out. Activity calls are given as the source filed them. Calls come from the whole dose curve; as a rule, active = well fitted inhibition curve with a large enough effect; inconclusive = small, poorly fitted or top-dose-only effect; inactive = flat fitted curve, though single readings scatter.
observation.type: outcome

Study these solved cases before continuing.
O=C(O)CN1C(=O)c2cccc3cccc(c23)C1=O; inactive
O=S(=O)(O)c1cc(I)c(O)c2ncccc12; inactive
O=C(O)c1ccccc1-c1ccc(C(F)(F)F)cc1; inactive
CCCCCCCCCCCCCCCCCCOCC(O)CO (configuration not stated); inactive
CCN(CC)CCNC(C(=O)OCCC(C)C)c1ccccc1 (configuration not stated); inactive

For every item in the list below, what is its measured outcome?
1. Oc1cccc(O)c1
2. CC1(C)OC(=O)NC1=O

["inactive", "inactive"]

====

Target: Cytochrome P450 3A4 (Homo sapiens) (UniProt P08684)
Sequence (P08684 whole entry, looked up): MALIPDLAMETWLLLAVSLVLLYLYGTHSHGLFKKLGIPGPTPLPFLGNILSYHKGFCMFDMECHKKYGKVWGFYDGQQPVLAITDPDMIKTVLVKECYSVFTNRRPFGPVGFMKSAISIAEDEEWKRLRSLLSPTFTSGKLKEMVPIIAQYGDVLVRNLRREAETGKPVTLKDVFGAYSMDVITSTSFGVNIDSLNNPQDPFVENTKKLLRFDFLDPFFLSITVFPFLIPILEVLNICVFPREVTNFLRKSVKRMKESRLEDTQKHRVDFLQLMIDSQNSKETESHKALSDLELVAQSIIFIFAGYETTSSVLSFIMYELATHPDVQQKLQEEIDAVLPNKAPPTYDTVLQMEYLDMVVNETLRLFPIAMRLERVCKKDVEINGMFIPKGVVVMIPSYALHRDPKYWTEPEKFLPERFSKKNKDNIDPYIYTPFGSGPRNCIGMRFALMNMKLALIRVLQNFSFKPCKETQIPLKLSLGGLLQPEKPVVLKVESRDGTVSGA
Experiment: qHTS Assay for Inhibitors and Substrates of Cytochrome P450 3A4 (AID 884); further: nearly all actives have a fitted effect of over 50% in size
Conditions: recombinant CYP3A4, Luciferin-PPXE luminescence; series mostly up to 57.1 µM
Experimental: NIH Molecular Libraries Screening Centers Network [MLSCN] NIH Chemical Genomics Center [NCGC] The P450 gene superfamily is involved in the metabolism and clearance of xenobiotics. […] The luciferin is then measured by luminescence after the addition of a luciferase detection reagent. […] Inhibitors and some substrates limit the production of luciferin, and decrease measured luminescence. […]
Results filed as inconclusive are left out. Activity calls are given as the source filed them. The call rests on the fitted dose curve; in most records, active means well fitted inhibition curve with a large enough effect; inconclusive means small, poorly fitted or top-dose-only effect; inactive means no such curve, though single readings can be large or run the other way.
Select the correct class. Options are true = active, false = inactive and nothing else.

Known results for compounds:
NS(=O)(=O)c1cc2c(cc1Cl)NC(CSCc1ccccc1)=NS2(=O)=O; true
OCC(O)CN1CCN(c2ccccc2)CC1 (centres undefined); false
Cc1ccc(C(C)C)cc2c(C)ccc1-2; false
CC1(C)[C@@H]2CC[C@@]1(C)C(=O)C2; false
CCCCCCCCCCCCCCCCCCOCC(O)CO (centres undefined); false

Given `OC[C@H]1O[C@@H](O[C@@H]2[C@@H](CO)O[C@](O)(CO)[C@H]2O)[C@H](O)[C@@H](O)[C@H]1O` , state the outcome it received in this test. false

Given `CN(C)CCN(Cc1ccccc1)c1ccccn1` , state the outcome it received in this test. false

Given `Cc1cc(CC(=O)O)n(C)c1C(=O)c1ccc(Cl)cc1` , state the outcome it received in this test. false

Given `C#CCN(C)Cc1ccccc1` , state the outcome it received in this test. false

Given `NCC(=O)CCC(=O)O` , state the outcome it received in this test. false

Given `CCN(CC)CCNC(=O)c1cc(Cl)c(N)cc1OC` , state the outcome it received in this test. false

====

Assay: qHTS of pediatric cancer cell lines to identify multiple opportunities for drug repurposing: Primary screen for OHS-50 cells (AID 1347103);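 further: plate controls were DMSO neutral control for no effect and bortezomib positive control for full effect; nearly all actives have a fitted effect of over 40% in size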
Conditions: OHS-50 osteosarcoma viability, CellTiter-Glo luminescence, 48 h; series mostly up to 57.3 µM
Records with an inconclusive call do not appear. Active and inactive are the calls of the source. Calls come from the whole dose curve; as a rule, active = well fitted cell-killing curve with a large enough effect; inconclusive = small, poorly fitted or top-dose-only effect; inactive = no such curve, though single readings can be large or run the other way.
Select the correct class. Options are YES (active), NO (inactive) and nothing else.

Known results for molecules:
O=c1cc[nH]c(=O)[nH]1; NO
Oc1cccc(O)c1; NO
[O-][n+]1cccc(CO)c1; NO
Cc1ncc(COP(=O)(O)O)c(C=O)c1O; NO
Nc1cc(=O)[nH]c(N)n1; NO
CC(O)CN(CCN(CC(C)O)CC(C)O)CC(C)O (stereo unspecified); NO

Given CC1=C(CC(=O)O)c2cc(F)ccc2/C1=C\c1ccc(S(C)=O)cc1 (stereo unspecified) , state the outcome it received in this test. NO

Given `COc1cc2[nH]c(=O)[nH]c(=O)c2cc1OC` , state the outcome it received in this test. NO

Given NC(CSCC(=O)O)C(=O)O (stereo unspecified) , state the outcome it received in this test. NO
